Entry source: PubChem BioAssay (NCI)

# Protocol Notes: NCI Yeast Anticancer Drug Screen. Data for the cln2 rad14 strain (AID 165)
# Measurement Conditions: S. cerevisiae cln2 rad14 strain; at 50.0 µM unless noted
This is part of a sample that, as a whole, favours compounds with a hit. Of some 79,000 tested, about 15% had one in any assay. Activity calls are given as the source filed them. No stated cut-off is given here; in the data, active means growth inhibition above about 70%; inactive means the rest.
Please reply with one of these outcomes: active, inactive

compound=COc1ccc(C2NC3=C(CCCC3)N2)cc1 qualitative_label=inactive
compound="BrCC(Br)C1OCCCO1 (stereo unspecified)" qualitative_label=inactive
compound=O=CC[C@]12CC(=O)OC(C=CC13OCCO3)C2 qualitative_label=inactive
compound=CCOC(=O)c1cccc(N)c1C(=O)OCCN(CC)CC qualitative_label=inactive
compound=O=c1[nH]nc(-c2ccccc2)nc1/C(=N\Nc1ccccc1)c1ccccc1 qualitative_label=inactive
compound=O=C(Cl)C(=O)c1c[nH]c2ccccc12 qualitative_label=inactive
compound=N#C/C(=C\c1ccc(Cl)cc1Cl)C(=O)N/N=C/c1ccc(Cl)cc1Cl qualitative_label=inactive
compound=C/C(=N/NC(N)=S)c1ccc([N+](=O)[O-])cc1 qualitative_label=inactive

Hey, what did the test say about "COc1ccc(OCc2ccc(OC)c(OC)c2)cc1" ?
inactive

Outcome? CCC(C(N)=O)c1ccccc1 (stereo unspecified)
inactive

Dear colleague, could you share the recorded outcome for CCCCCCC/C=C/C1CC(=O)OC1=O (stereo unspecified) when you have a moment?
inactive

Call for entry COc1cc(C2c3cc4c(c(OC5OC(CO)C(O)C5O)c3CC3COC(=O)C32)OCO4)cc(OC)c1OC (stereo unspecified) :
inactive

Could you kindly confirm the outcome this assay logged for "CCC(=O)Nc1ccccc1Cl" ?
inactive
